Tested on: Vβ7+ NKT cells
Test protocol: Vβ usage of NKT cells after 3 days of in vitro proliferation
Format: cell-based, mouse
Run conditions: Vβ usage by cell division peak
Observation type: bias toward Vβ7 proliferation

[[record]]
compound = "CCCCC/C=C\\C/C=C\\CCCCCCCCCC(=O)N[C@@H](CO[C@H]1O[C@H](CO)[C@@H](O)[C@H](O)[C@H]1O)[C@H](O)[C@H](O)CCCCCCCCCCCCCC [α-GlcCer (C20:2)]"
reading = "showed a Vβ7 bias"

[[record]]
compound = "CCCCCCCCCCCCCCCCCCCCCCCCCC(=O)N[C@@H](CO[C@H]1O[C@H](CO)C[C@H](O)[C@H]1O)[C@H](O)CCCCCCCCCCCCCCC [4′,4″-deoxy-α-GalCer]"
reading = "showed a Vβ7 bias"

[[record]]
compound = "CCCCCCCCCCCCCCCCCCCCCCCCCC(=O)N[C@@H](CO[C@H]1O[C@H](CO)C[C@H](O)[C@H]1O)[C@H](O)[C@H](O)CCCCCCCCCCCCCC [4′-deoxy-α-GalCer]"
reading = "showed a Vβ7 bias"

